System: Erk1/2 phosphorylation
Assay: Erk1/2 Phosphorylation Assay (western blot), Panc-1
Assay type: cell-based, human
Particulars: at 10 μM, * = activation
Description: Protocol for Western Erk1/2 Cell-Based Phosphorylation Assay This assay is referred to as the “Erk1/2 Phosphorylation Assay” throughout this application. […] Method 1: Cells were plated at 350000 cells/well density in a 12-well plate, allowed 3 hours to adhere to the plate, then starved in the appropriate medium in the presence of 0.5% FBS overnight. […] Protein concentration was assessed by BCA protein assay (Thermo Scientific). Phosphorylation level of Erk1/2 was determined by western blot. […]
Attribute Measured: % inh of Erk1/2 phosphorylation in Panc-1

>  <Structure>
CO[C@H]1C[C@@H](Nc2nc(-c3nccn3C)nn3cc(-c4ccn(C)n4)c(C)c23)C1

>  <Measurement>
A* (1-25% activation)

$$$$
>  <Structure>
Cc1c(-c2ccn(C(C)C)n2)cn2nc(-c3nccn3C)nc(Nc3cc(OCCN(C)C)ncn3)c12

>  <Measurement>
A* (1-25% activation)

$$$$
>  <Structure>
COc1ccnc(Nc2nc(-c3nccn3C)nn3cc(-c4ccn(C)n4)c(C)c23)c1

>  <Measurement>
A* (1-25% activation)

$$$$

* * *

System: Erk1/2 phosphorylation
Assay: Erk1/2 Phosphorylation Assay (western blot), Panc-1
Format: cell-based, human
Particulars: at 10 μM, * = activation
Attribute Measured: % inh of Erk1/2 phosphorylation in Panc-1

>  <Compound>
COCCCNC(=O)c1c(-c2ccn(C)n2)cn2nc(-c3nccn3C)nc(N[C@H]3CC[C@H](OC)C3)c12 (racemic)

>  <Measurement>
A* (1-25% activation)

$$$$
>  <Compound>
COCc1noc(Nc2nc(-c3nccn3C)nn3cc(-c4ccn(C(C)C)n4)c(C)c23)n1

>  <Measurement>
A* (1-25% activation)

$$$$
>  <Compound>
Cc1c(-c2ccn(C)n2)cn2nc(-c3nccn3C)nc(Nc3ccn(C4CC4)n3)c12

>  <Measurement>
A* (1-25% activation)

$$$$

* * *

Assayed System: Rac-1 (Homo sapiens)
Construct: made in house
Assay: Ras GTP Binding Domain Inhibition Assay (Ras Superfamily Assay)
Particulars: read-out: Rac-1: % inh.

>  <Molecule>
COc1cnc(Nc2nc(-c3nccn3C)nn3cc(-c4ccn(C(C)C)n4)c(C)c23)nc1 [Compound 56]

>  <Assayed System>
Rac-1 (Homo sapiens)

>  <inhibition at 20 µM>
50 to 75%

$$$$
>  <Molecule>
COC1CCCN(c2nc(-c3ccccn3)nn3cc(-c4ccn(C(C)C)n4)c(-c4ccccc4)c23)C1 (racemic) [Compound 27]

>  <Assayed System>
Rac-1 (Homo sapiens)

>  <inhibition at 20 µM>
1 to 25%

$$$$
>  <Molecule>
COc1cc(Nc2nc(-c3nccn3C)nn3cc(-c4ccn(C)n4)c(C)c23)ncc1C [Compound 235]

>  <Assayed System>
Rac-1 (Homo sapiens)

>  <inhibition at 20 µM>
50 to 75%

$$$$
>  <Molecule>
Cc1c(-c2ccn(C)n2)cn2nc(-c3nccn3C)nc(Nc3ccc(OC(F)(F)F)cn3)c12 [Compound 232]

>  <Assayed System>
Rac-1 (Homo sapiens)

>  <inhibition at 20 µM>
76 to 100%

$$$$
>  <Molecule>
Cc1c(-c2ccn(C(C)C)n2)cn2nc(-c3nccn3C)nc(Nc3ccncn3)c12 [Compound 55]

>  <Assayed System>
Rac-1 (Homo sapiens)

>  <inhibition at 20 µM>
76 to 100%

$$$$
>  <Molecule>
Cc1c(-c2ccn(C)n2)cn2nc(-c3nccn3C)nc(Nc3ccc(OCC(F)(F)F)cn3)c12 [Compound 230]

>  <Assayed System>
Rac-1 (Homo sapiens)

>  <inhibition at 20 µM>
76 to 100%

$$$$
>  <Molecule>
COCCNc1nc(-c2nccn2C)nn2cc(-c3ccn(C(C)C)n3)c(C)c12 [Compound 5]

>  <Assayed System>
Rac-1 (Homo sapiens)

>  <inhibition at 20 µM>
26 to 49%

$$$$
>  <Molecule>
CO[C@H]1C[C@H](Nc2nc(-c3nccn3C)nn3cc(-c4cccc(CN)c4)c(-c4ccccc4)c23)C1 [Compound 204]

>  <Assayed System>
Rac-1 (Homo sapiens)

>  <inhibition at 20 µM>
1 to 25%

$$$$
>  <Molecule>
COCCNc1nc(-c2nccn2C)nn2cc(-c3cccc(OC)c3Cl)c(C)c12 [Compound 16]

>  <Assayed System>
Rac-1 (Homo sapiens)

>  <inhibition at 20 µM>
0%

$$$$
>  <Molecule>
Cc1c(-c2ccn(C)n2)cn2nc(-c3nccn3C)nc(Nc3cc4n(n3)CCC4)c12 [Compound 100]

>  <Assayed System>
Rac-1 (Homo sapiens)

>  <inhibition at 20 µM>
76 to 100%

$$$$
>  <Molecule>
COc1cc(Nc2nc(-c3nccn3C)nn3cc(-c4ccncc4)c(C)c23)ncn1 [Compound 49]

>  <Assayed System>
Rac-1 (Homo sapiens)

>  <inhibition at 20 µM>
26 to 49%

$$$$
>  <Molecule>
COc1ncncc1Nc1nc(-c2nccn2C)nn2cc(-c3ccn(C(C)C)n3)c(C)c12 [Compound 88]

>  <Assayed System>
Rac-1 (Homo sapiens)

>  <inhibition at 20 µM>
1 to 25%

$$$$

* * *

Tested on: Erk1/2 phosphorylation
Assay: Erk1/2 Phosphorylation Assay (western blot), Panc-1
Assay type: cell-based, human
Particulars: at 10 μM, * = activation
Procedure: Protocol for Western Erk1/2 Cell-Based Phosphorylation Assay This assay is referred to as the “Erk1/2 Phosphorylation Assay” throughout this application. […] Method 1: Cells were plated at 350000 cells/well density in a 12-well plate, allowed 3 hours to adhere to the plate, then starved in the appropriate medium in the presence of 0.5% FBS overnight. […] Protein concentration was assessed by BCA protein assay (Thermo Scientific). Phosphorylation level of Erk1/2 was determined by western blot. […]
Attribute Measured: % inh of Erk1/2 phosphorylation in Panc-1

>  <Compound>
COc1cccc(-c2cn3nc(-c4nccn4C)nc(N[C@H]4C[C@H](OC)C4)c3c2-c2ccccn2)c1C [Compound 274]

>  <Measurement>
D (85-100% inhibition)

$$$$
>  <Compound>
CO[C@H]1C[C@@H](Nc2nc(-c3nccn3C)nn3cc(-c4cccnc4)c(C)c23)C1 [Compound 153]

>  <Measurement>
A (1-25% inhibition)

$$$$
>  <Compound>
COc1cccc(-c2cn3nc(-c4nccn4C)nc(N[C@H]4C[C@@H](OC)C4)c3c2-c2ccccc2)c1Cl [Compound 31]

>  <Measurement>
D (85-100% inhibition)

$$$$
>  <Compound>
Cn1ccnc1-c1nc(O)c2c(-c3ccccc3)ccn2n1 [Compound 39]

>  <Measurement>
0 (0% inhibition)

$$$$
>  <Compound>
Cc1c(-c2ccn(C)n2)cn2nc(-c3nccn3C)nc(Nc3ccc(N4CCCC4)cn3)c12 [Compound 228]

>  <Measurement>
A* (1-25% activation)

$$$$
>  <Compound>
CCc1nc(Nc2nc(-c3nccn3C)nn3cc(-c4ccn(C(C)C)n4)c(C)c23)nn1C [Compound 76]

>  <Measurement>
0 (0% inhibition)

$$$$
>  <Compound>
COCCCS(=O)(=O)Nc1nc(-c2nccn2C)nn2cc(-c3ccccc3)c(-c3ccccc3)c12 [Compound 213]

>  <Measurement>
D* (85-100% activation)

$$$$
>  <Compound>
COc1cccc(-c2cn3nc(-c4nccn4C)nc(N[C@H]4C[C@H](OC)C4)c3c2-c2ccccc2)c1F [Compound 42]

>  <Measurement>
D (85-100% inhibition)

$$$$
>  <Compound>
COc1cc(Nc2nc(-c3nccn3C)nn3cc(-c4cccnc4)c(C)c23)ncn1 [Compound 48]

>  <Measurement>
A (1-25% inhibition)

$$$$
>  <Compound>
Cc1c(-c2ccn(C)n2)cn2nc(-c3nccn3C)nc(Nc3cc(C(C)C)[nH]n3)c12 [Compound 268]

>  <Measurement>
D* (85-100% activation)

$$$$
>  <Compound>
COc1nccc(Nc2nc(-c3nccn3C)nn3cc(-c4ccn(C(C)C)n4)c(C)c23)n1 [Compound 86]

>  <Measurement>
D* (85-100% activation)

$$$$
>  <Compound>
COc1cc(-c2cn3nc(-c4nccn4C)nc(N[C@@H]4CC[C@H](OC)C4)c3c2C)ccn1 (racemic) [Compound 164]

>  <Measurement>
A* (1-25% activation)

$$$$
>  <Compound>
Cc1c(-c2ccn(C)n2)cn2nc(-c3nccn3C)nc(Nc3ccc(OC(F)F)cn3)c12 [Compound 231]

>  <Measurement>
D* (85-100% activation)

$$$$
>  <Compound>
COc1cc(-c2cn3nc(-c4nccn4C)nc(N[C@H]4C[C@H](OC)C4)c3c2C)ccn1 [Compound 160]

>  <Measurement>
A* (1-25% activation)

$$$$
>  <Compound>
CO[C@H]1C[C@H](Nc2nc(-c3nccn3C)nn3cc(-c4cccc(OCCN)c4)c(-c4ccccc4)c23)C1 [Compound 205]

>  <Measurement>
D* (85-100% activation)

$$$$
>  <Compound>
Cc1c(-c2ccn(C(C)C)n2)cn2nc(-c3ccccn3)nc(O)c12 [Compound 8]

>  <Measurement>
0 (0% inhibition)

$$$$
>  <Compound>
Cc1c(-c2ccn(C)n2)cn2nc(-c3nccn3C)nc(Nc3cc(C4CC4)[nH]n3)c12 [Compound 104]

>  <Measurement>
D* (85-100% activation)

$$$$
>  <Compound>
COc1cccc(-c2cn3nc(-c4nccn4C)nc(N[C@H]4C[C@H](OC)C4)c3c2-c2ccccc2)c1C [Compound 209]

>  <Measurement>
D (85-100% inhibition)

$$$$
